- Experimental target: T1, Sla1-2, P32790
- T1 sequence (P32790 60-140, looked up): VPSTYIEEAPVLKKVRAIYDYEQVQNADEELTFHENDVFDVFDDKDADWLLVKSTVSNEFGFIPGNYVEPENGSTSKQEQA
- Assay protocol: SPOT array
- Measurement parameters: median of control spots 712
Measured attribute: SPOT intensity

(I) VPVAPPPPPASLGQS
(II) IRMPSNPALPKKLLN
In: I'm curious, which of these has a smaller SPOT intensity number: I or II ? Answer = label.
Out: I
(I: 0, II: 18)

(P) VATSTSPKLPPRGKQ
(Q) GRSRLFPHSPLGRSS
(R) NGRRRPKFRVQLSGN
In: // sort entries: SPOT intensity, high to low Please, when replying, give the labels in the order that was requested.
Out: R, Q, P

(1) IPSRPAPKPPSSASA
(2) GAGERPRLVPRPINV
In: Hey, between 1 and 2 which has a smaller measured SPOT intensity? # answer = label of selected item
Out: 1
(1: 0, 2: 1)

(1) HPRFVSPRIPSRIVK
(2) FPPKRKPLLRPQRSD
In: For the two items 1 and 2 , which reports the higher SPOT intensity value? Write down the label attached to your selection.
Out: 2

(A) RRTRLRPPTPLSQLL
(B) ANNQGPPNLPARDKS
In: Thinking about recorded SPOT intensity values, which is higher, A or B ? Kindly give the label for the entry you pick.
Out: B
(B: 1, A: 0)
